# Measured On: Bcl-2-like protein 2 (Homo sapiens)
# Assay Comment: Bcl-W/Bim binding regulators – biochemical, multiplexed, bead-based flow cytometry, fluorescence, dose response (AID 1330)
# Experimental Context: inactive by the depositor's call
pEC50: −log10 of the molar value.
Observed Property: pEC50

Example cases with answers are listed next.
# input Any idea what its pEC50 is? The compound is O=C(CSc1ccc2nnc(-c3ccncc3)n2n1)Nc1nccs1 [SMR000320332]
# output 4.95

# input Same read-out for COc1ccc(OC)c(-n2c(=O)c3ccccc3c3ccccc3c2=O)c1 [SMR000236434] ?
# output 4.75

# input Same read-out for CC(=O)NC1=C(NC2CCS(=O)(=O)C2)C(=O)c2ccccc2C1=O (centres undefined) ?
# output 5.46

# input Same read-out for Cc1ccc(NC2=C(NC(=O)c3ccccc3)C(=O)c3ccccc3C2=O)cc1Cl [MLS000392290] ?
# output 5.36

# input Same read-out for Nc1c(C(=O)NCc2ccco2)sc2nc3c(cc12)C(=O)CCC3 [SMR000072940] ?
# output 4.50

# input Same read-out for O=C(Nc1ccc2nc(-c3ccco3)c(-c3ccco3)nc2c1)NC1CC1 [SMR000118524] ?
# output 4.79

[A] COc1cc(OC)c([N+](=O)[O-])cc1[CH+][N-]NC(=O)c1ccncc1 [SMR000306621]
[B] COc1cc2nc(=S)[nH]c(NCCc3ccc(S(N)(=O)=O)cc3)c2cc1OC [MLS000674601]
# input Which is greater in pEC50, the first item A or the second item B ? Answer by quoting the chosen item's label.
# output B
(B: 6.17, A: 4.59)

====

# Measured On: Bcl-2-like protein 2 (Homo sapiens, UniProt Q92843)
# Sequence (Q92843 whole entry): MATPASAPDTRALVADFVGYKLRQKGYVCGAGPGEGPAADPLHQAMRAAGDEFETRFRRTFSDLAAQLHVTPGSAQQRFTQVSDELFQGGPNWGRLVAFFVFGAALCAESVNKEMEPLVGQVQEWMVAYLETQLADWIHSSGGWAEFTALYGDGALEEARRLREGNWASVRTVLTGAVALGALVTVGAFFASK
# Assay Comment: Bcl-W/Bim binding regulators – biochemical, multiplexed, bead-based flow cytometry, fluorescence, dose response (AID 1330)
Counter-ions that a name gives are not always drawn.
Observed Property: EC50 (µM)

Example cases with answers are listed next.
# input Any idea what its EC50 is? The molecule is O=C1c2ccccc2-c2onc3ccc(NCCCn4ccnc4)c1c23 [SMR000044769]
# output 1.11

# input Same read-out for CCC(=O)N(CC)C1C(=O)C(=O)c2ccccc2C1=O (stereo not given) ?
# output 0.92

[a] O=C1c2ccccc2-c2onc3ccc(NCc4ccco4)c1c23 [MLS000080234]
[b] COc1cc(/C=C2\CC/C(=C\c3cc(OC)c(O)c(OC)c3)C2=O)cc(OC)c1O
# input Select one. Lower EC50: a or b Answer by quoting the chosen item's label.
# output b

[P] Cc1nnc2ccc(-c3cccc(NC(=O)c4ccco4)c3)nn12 [SMR000324305]
[Q] CCC(/C=C1\Sc2ccc(OC)cc2N1CCO)=C\c1sc2ccc(OC)cc2[n+]1CCO
[R] COc1cc(C=NNC(=O)CN(Cc2ccco2)S(=O)(=O)c2ccccc2)ccc1O
# input Descending sort on EC50 required. Answer format: the labels, ordered as requested.
# output Q, R, P

[a] CN1CCc2cccc3c2[C@@H]1Cc1ccc(O)c(O)c1-3
[b] CN1CCc2cccc3c2[C@H]1Cc1ccc(O)c(O)c1-3 [APOMORPHINE HYDROCHLORIDE]
# input Select one. Lower EC50: a or b Answer by quoting the chosen item's label.
# output a
